Experiment summary: gradient 5% acetonitrile 3 min, to 50% in 2 min, to 85% in 15 min, held 3 min, 100 µL/min
Conditions: column: Zorbax Extend-C18 2.1 x 50 mm; eluents: water / acetonitrile, 0.1% formic acid
Assay metric: RP-LC retention time (s)

COc1ccccc1-c1noc(C2CCCN2C(=O)c2ccc3cc[nH]c3c2)n1 (stereo not given)    830
CCOC(=O)c1[nH]c(C)c(CCC(=O)N2CCCC(C(=O)NC3CCCCCC3)C2)c1C (stereo not given)    868
Cc1cc(C)c(S(=O)(=O)NCCn2c(C)cnc2C2CC2)c(C)c1    647
CCc1nc2sc(C(C)C)nn2c1S(=O)(=O)N1CCCC1    945
Cc1ccc(-c2cc3c(=O)n(Cc4noc(CN5CCC(C)CC5)n4)ccn3n2)cc1C    742
O=S(=O)(NCc1ccco1)c1cccc(-c2nc(-c3ccccc3)no2)c1    1050
O=C(C1CCCN(c2ncc(-c3cccc(F)c3)cn2)C1)N1CCC(N2CCCCC2)CC1 (stereo not given)    689
COc1ccc2cc(C(=O)N3CCC(CC(=O)N4CCN(c5ccccn5)CC4)CC3)[nH]c2c1    623
CCc1nc(-c2cn(Cc3ccc(F)cc3)nn2)no1    822
CC(C)=CCN1CCC2(CCc3ccccc32)CC1    775

###

Experiment summary: gradient 5% acetonitrile 3 min, to 50% in 2 min, to 85% in 15 min, held 3 min, 100 µL/min
Conditions: column: Zorbax Extend-C18 2.1 x 50 mm; eluents: water / acetonitrile, 0.1% formic acid
Assay metric: RP-LC retention time (s)

COc1ccc(N2CCN(C(=O)C3CCCN(c4ccncc4)C3)CC2)cc1 (centres undefined)    593
Cc1nc(C)c(C(=O)N2CCC(C3CCN(S(C)(=O)=O)CC3)C2)s1 (centres undefined)    656
Cc1ccc(NC(=O)C2CCN(S(=O)(=O)c3cc(C(=O)N4CCCC4)cs3)CC2)c(C)c1    831
Cc1nc(-c2ccc(C(=O)N3CCC(C(=O)N4CCc5ccccc54)CC3)cc2)no1    816
CC1CCc2onc(C(=O)N3CCN(c4ccccn4)CC3)c2C1 (centres undefined)    650
CCOc1ccc(CC(=O)NC2CCN(c3cc(-c4cccs4)[nH]n3)C2)cc1 (centres undefined)    733
O=C(NCCCN1CCN(C2CCCCC2)CC1)C1CCCN(C(=O)c2cccc(Cl)c2)C1 (centres undefined)    584
COc1ccc(Cl)c2c(=O)c3c([nH]c12)CCN(CC(=O)NCc1ccc(C)cc1)C3    630
O=C(NCc1ccccc1Cl)c1c[nH]c2ncccc12    708

###

Experiment summary: gradient 5% acetonitrile 3 min, to 50% in 2 min, to 85% in 15 min, held 3 min, 100 µL/min
Conditions: column: Zorbax Extend-C18 2.1 x 50 mm; eluents: water / acetonitrile, 0.1% formic acid
Assay metric: RP-LC retention time (s)

CCc1ccc(N2CCC(C(=O)NCCc3c[nH]c4ccc(C)cc34)C2=O)cc1 (centres undefined)    1010
O=C(C1CC(=O)N(c2n[nH]c3ccccc23)C1)N1CCN(CCc2ccccn2)CC1 (centres undefined)    551
COC(=O)c1ncn2c1C(=O)N(Cc1ccc(F)cc1)C(C)(C(=O)NCc1ccccc1)C2 (centres undefined)    714
CNC(=O)[C@@H]1CN(C(=O)CCc2nc3ccccc3s2)C[C@H]1c1n[nH]c(C)n1    607
O=C(NC1CC1)c1ccccc1OCC1CCCN(Cc2cc3ccccc3nc2Cl)C1 (centres undefined)    650
COC(=O)C(C)n1nc2nc(Nc3ccc(C)c(F)c3)cc(C)n2c1=O (centres undefined)    1100

(P) COC(=O)c1ccc2c(=O)n(-c3ccc(OC)c(OC)c3)c(N3CCOCC3)nc2c1
(Q) Cc1ccccc1-c1nc(-c2ccc(S(=O)(=O)N3CCOCC3)cc2)no1
Problem: Lab note: check whether P or Q has the lower measured RP-LC retention time. # respond with the chosen item's label
Solution: P

Origin of values: the METLIN SMRT retention time set (Domingo-Almenara et al. 2019)
